measurement_name: melting point

Reference set (5 entries):
- CCc1cccc(CNC[C@@H](O)[C@H](Cc2cc(F)cc(F)c2)NC(=O)C2CCC(CS(C)(=O)=O)CC2)c1 (stereo partly specified): 45 to 50 °C
- CC(C)NS(=O)(=O)c1ccc(N2CCC(=O)CC2)cc1: 103 to 105 °C
- CCCCNC(=O)N1C2=NC(C)(C)N(C)C(=O)N2c2ccccc21: 95 to 97 °C
- O=C(NNc1ccc(Br)cc1)c1c(F)cccc1F: 172 °C
- CCC1CC(N)=NN1c1ccccc1 (stereo unspecified): 123 to 125 °C

Now turn to the next compound.
melting point reading for O=C1c2ccccc2CN2C(=O)CCC12 (stereo unspecified) : 105 to 107 °C
